- System: Wild type
- procedure.text: S. aureus survival, RN4220 and DeltatarO strains – OD600, teichoic acid synthesis inhibitors, primary screen (AID 463173)
- condition.notes: S. aureus RN4220 wild type/DeltatarO growth, OD600, 18 h, stronger effect = lower value, screened at 18.75 µg/mL (by protocol)
Screen size: about 52,000 compounds; about 1,700 (3.3%) were called active. The entries come from a sample that favours actives as a whole.
What survival was measured for each of the following?
One number for each entry, in %.

[[record]]
compound = "Cc1ccc(C(=O)c2c(N)c(C(=O)Nc3ccccc3Cl)c3ccccn23)cc1"
readout_label = "survival"
observed_result = 96


Dear colleague, could you send me survival for each of the items below? Thanks.
1. Cc1ccc(C)c(N2CCN(CCCNC(=O)Nc3ccc(Cl)cc3)CC2)c1
2. CCOc1ccc(S(=O)(=O)NCC(c2ccc(N(C)C)cc2)N2CCc3ccccc32)cc1 (stereo unspecified)
3. CCOC(=O)c1cnc2c(Cl)cc(Cl)cc2c1Nc1ccccc1OC
4. Cc1ccc(C)c(CSc2nc3ccncc3n2Cc2nc(-c3ccccc3Cl)oc2C)c1

Result block:
1: -6; 2: 22; 3: 65; 4: 61

Quick one: give me survival for each item below, same order please.
1. CCOC(=O)c1cnc2c(C(F)(F)F)cccc2c1Nc1cccc(C(=O)OC)c1
2. COc1ccc(NC(=O)c2cc3c(=O)n(Cc4cccnc4)ccc3nc2C)cc1Cl
3. Cc1ccc(CSc2nc3ccncc3n2Cc2nc(-c3ccccc3C)oc2C)cc1
4. CCOC(=O)c1cnc2c(C)cc(C)cc2c1Nc1ccc(OCc2ccccc2)cc1
5. COc1ccc(S(=O)(=O)NCC(c2ccc(N(C)C)cc2)N2CCc3ccccc32)cc1 (stereo unspecified)
6. Cc1ccc(S(=O)(=O)NCC(c2ccc(N(C)C)cc2)N2CCc3ccccc32)cc1 (stereo unspecified)
7. Cc1ccc(Cl)cc1N1CCN(CCNC(=O)Nc2ccc(Cl)cc2)CC1
8. O=C(c1ccc2c(c1)N(Cc1cccc(Cl)c1)C(=O)c1ccccc1S2)N1CCOCC1

Result block:
1. 26
2. 124
3. 0
4. 11
5. 73
6. -2
7. -6
8. 99

Please report survival for every entry that follows.
1. Clc1ccc2nc(-c3ccc(Br)o3)c(Nc3ccc4c(c3)OCCO4)n2c1
2. CCOC(=O)c1cnc2c(C)cc(C)cc2c1NCCN1CCOCC1
3. CCOc1ccc(NC(=O)NCCN2CCN(c3cc(Cl)ccc3C)CC2)cc1
4. CC(C)CC(=O)n1nc(-c2ccco2)nc1NCc1ccc(Cl)cc1
5. COc1ccc(N2CCN(Cc3nnc(-c4ccc5c(c4)OCO5)o3)CC2)cc1
6. COc1cccc(NC(=O)Cn2c(=O)n(CCc3cccc(C)c3)c(=O)c3ccccc32)c1
7. Cc1ccc(NC(=O)Cn2c(=O)n(Cc3nc(C)no3)c(=O)c3cc4c(cc32)OCO4)cc1

Result block:
93
53
53
83
81
82
90

Query block: Give the measured survival for `CCOC(=O)c1cnc2c(C)cc(C)cc2c1Nc1ccccc1OCC`
Result block: -1
